Answer each item with its documented fold change of Putrescine concentration.
tested on: Escherichia coli IAI1; assay: fold change of Putrescine concentration vs plate DMSO controls (fold change (ratio)); higher = more amine produced, active = hit call of the paper (significant change in both replicates, either direction); conditions: incubation time: 27 h, anaerobic, 37 °C
Counter-ions that a name gives are not always drawn.
// return just the number, without any unit appended

input: Given CC(=O)OCC(=O)[C@@]12N=C(C)O[C@@H]1C[C@H]1[C@@H]3CCC4=CC(=O)C=C[C@]4(C)[C@H]3[C@@H](O)C[C@@]12C [Deflazacort] (20 µM) , respond with its fold change of Putrescine concentration.
output: 1.03

input: Please look at this compound and report its fold change of Putrescine concentration: COc1cccc(OC)c1C(=O)N[C@@H]1C(=O)N2[C@@H]1SC(C)(C)[C@@H]2C(=O)O [Methicillin sodium] (20 µM)
output: 1.24

input: State, in one line, measured fold change of Putrescine concentration of CCCCN(CCCC)CCCOC(=O)c1ccc(N)cc1 [Butacaine] (20 µM)
output: 0.955

input: Output fold change of Putrescine concentration of O=C1OC(c2ccc(O)cc2)(c2ccc(O)cc2)c2ccccc21 [Phenolphthalein] (20 µM)
output: 0.991

input: Report measured fold change of Putrescine concentration; entry is CC(COc1ccccc1)NC(C)C(O)c1ccc(O)cc1 (stereo unspecified) [Isoxsuprine hydrochloride] (20 µM)
output: 1.05

input: Quote fold change of Putrescine concentration reported for COc1ccc(C(=O)CC(=O)c2ccc(C(C)(C)C)cc2)cc1 [Avobenzone] (20 µM) please.
output: 0.998
